- System: Leishmania infantum
- run_description: Antileishmanial activity against GFP-expressing Leishmania infantum intracellular amastigotes infected in human THP-1 derived macrophage cells assessed as reduction in parasite viability measured for 72 hrs by resazurin/alamar blue fluorometric assay
- Type: functional, organism-based
readout_name: EC50 (µM)
Express the result in µM but write the number alone.

The following compounds have reported results that may help.
{"columns": ["item_smiles", "readout_name", "unit_of_measure", "value_reported"],
 "data": [
  ["C[n+]1nn(-c2ccc(-c3nc(CCc4ccc(-c5ccccc5)cc4)c(-c4ccccc4)s3)c(OCCN3CCNC3=O)c2)cc1CCCCN", "EC50", "µM", 24.2],
  ["NCCCCc1cn(-c2ccc(-c3nc(CCc4ccc(-c5ccccc5)cc4)cs3)c(OCCN3CCNC3=O)c2)nn1.O=C(O)C(F)(F)F", "EC50", "µM", 52.1],
  ["C[n+]1nn(-c2ccc(-c3nc(-c4ccccc4)c(-c4ccccc4)s3)c(OCCN3CCNC3=O)c2)cc1CCCCN", "EC50", "µM", 73.8]
]}

Summary for this compound, "CC[n+]1nn(-c2ccc(-c3nc(CCc4ccc(-c5ccccc5)cc4)cs3)c(OCCN3CCNC3=O)c2)cc1CCCCN" : EC50 is 10

"C[n+]1nn(-c2ccc(-c3nc(CCc4ccc5ccccc5c4)cs3)c(OCCN3CCNC3=O)c2)cc1CCCCN.O=C(O)C(F)(F)F.O=S(=O)([O-])C(F)(F)F" has a reported EC50 of 27

Input "C[n+]1nn(-c2ccc(-c3nc(-c4ccc(-c5ccccc5)cc4)c(-c4ccccc4)s3)c(OCCN3CCNC3=O)c2)cc1CCCCN" . Output EC50: 14.1

* * *

- run_description: Thermodynamic aqueous solubility of compound at 25 degreeC measured after 24 hrs by HPLC analysis
- Type: physicochemical
- applied_conditions: buffer, read-out: Therm_solubility
Rule: 1 (yes) for solubility thermodynamic at 24 h not less than 10000 µg/mL, 0 (no) for anything less.

{"columns": ["item_smiles", "class_label"],
 "data": [
  ["C[n+]1nn(-c2ccc(-c3nc(CCc4ccc(-c5ccccc5)cc4)cs3)c(OCCN3CCNC3=O)c2)cc1CCCCN.O=C(O)C(F)(F)F.O=S(=O)([O-])C(F)(F)F", "1 (yes)"]
]}

Hi team, for "NCCCCc1cn(-c2ccc(-c3nc(CCc4ccccc4)cs3)c(OCCN3CCNC3=O)c2)nn1.O=C(O)C(F)(F)F" , is the recorded solubility thermodynamic at 24 h at or above 10000 µg/mL?
0 (no)

Decide: solubility thermodynamic at 24 h of "C[n+]1nn(-c2ccc(-c3nc(CCc4ccc5ccccc5c4)cs3)c(OCCN3CCNC3=O)c2)cc1CCCCN.O=C(O)C(F)(F)F.O=S(=O)([O-])C(F)(F)F" >= 10000 µg/mL?
1 (yes)

Say whether "NCCCc1cn(-c2ccc(-c3nc(CCc4ccc(-c5ccccc5)cc4)cs3)c(OCCN3CCNC3=O)c2)nn1.O=C(O)C(F)(F)F" shows solubility thermodynamic at 24 h of 10000 µg/mL or more.
0 (no)

# check: solubility thermodynamic at 24 h of "C[n+]1nn(-c2ccc(-c3nc(CCc4ccccc4)cs3)c(OCCN3CCNC3=O)c2)cc1CCCCN.O=C(O)C(F)(F)F.O=S(=O)([O-])C(F)(F)F" is greater than or equal to 10000 µg/mL
1 (yes)

# bool: solubility thermodynamic at 24 h of "C[n+]1nn(-c2ccc(-c3nc(CCc4ccc(-c5ccccc5)cc4)cs3)c(OCCN3CCNC3=O)c2)cc1CCCN.O=C(O)C(F)(F)F.O=S(=O)([O-])C(F)(F)F" >= 10000 µg/mL
1 (yes)

Please tell me: is the molecule "NCCCCc1cn(-c2ccc(-c3nc(CCc4cccc5ccccc45)cs3)c(OCCN3CCNC3=O)c2)nn1.O=C(O)C(F)(F)F" at or over 10000 µg/mL in terms of solubility thermodynamic at 24 h?
0 (no)

Is the recorded value of solubility thermodynamic at 24 h equal to or greater than 10000 µg/mL for this molecule? "NCCCCc1cn(-c2ccc(-c3nc(CCc4ccc(-c5ccccc5)cc4)cs3)c(OCCN3CCNC3=O)c2)nn1.O=C(O)C(F)(F)F"
0 (no)

* * *

Consider the following compounds and their measured selectivity ratio readings.
- run_description: Selectivity index, ratio of CC50 for human HepG2 cells to EC50 for Leishmania infantum MCAN/ES/89/IPZ229/1/89 axenic amastigotes
- Assay type: toxicity
- applied_conditions: read-out: Ratio CC50/EC50

// below: answered compounds
{"columns": ["compound", "value_reported"],
 "data": [
  ["COc1cc(-n2cc(CCCCN)[n+](C)n2)ccc1-c1nc(CCc2ccccc2)cs1", "> 3.8"],
  ["C[n+]1nn(-c2ccc(-c3nc(CCc4ccccc4)cs3)c(OCCN3CCNC3=O)c2)cc1CCCN", "< 1"],
  ["C[n+]1nn(-c2ccc(-c3nc(CCC4Cc5ccccc5O4)cs3)c(OCCN3CCNC3=O)c2)cc1CCCCN (configuration not stated)", "< 1"],
  ["C[n+]1nn(-c2ccc(-c3nc(-c4ccc(-c5ccccc5)cc4)c(-c4ccccc4)s3)c(OCCN3CCNC3=O)c2)cc1CCCCN", "> 12.3"],
  ["CC[n+]1nn(-c2ccc(-c3nc(CCc4ccc(-c5ccccc5)cc4)cs3)c(OCCN3CCNC3=O)c2)cc1CCCCN", "> 5.6"]
]}

// field: selectivity ratio; key: "C[n+]1nn(-c2ccc(-c3nc(CCc4ccccc4)cs3)c(OCCN3CCNC3=O)c2)cc1CCCCN.O=C(O)C(F)(F)F.O=S(=O)([O-])C(F)(F)F" ; value = > 1.1

According to the records, this compound "C[n+]1nn(-c2ccc(-c3nc(-c4ccccc4)cs3)c(OCCN3CCNC3=O)c2)cc1CCCCN" displays selectivity ratio of > 1.2

Short answer for "C[n+]1nn(-c2ccc(-c3nc(CCc4ccc(Oc5ccccc5)cc4)c(-c4ccccc4)s3)c(OCCN3CCNC3=O)c2)cc1CCCCN" : selectivity ratio was 4

selectivity ratio reported for this compound "COc1cc(-n2cc(CCCCN)[n+](C)n2)ccc1-c1nc(CCc2ccc(-c3ccccc3)cc2)cs1" : 4.7

# selectivity ratio (compound: "C[n+]1nn(-c2ccc(-c3nc(CCc4ccc5ccccc5c4)cs3)c(OCCN3CCNC3=O)c2)cc1CCCCN.O=C(O)C(F)(F)F.O=S(=O)([O-])C(F)(F)F" ) is > 5.8

* * *

- assayed_system: Trypanothione reductase (Trypanosoma congolense)
- Sequence (P13110 whole entry): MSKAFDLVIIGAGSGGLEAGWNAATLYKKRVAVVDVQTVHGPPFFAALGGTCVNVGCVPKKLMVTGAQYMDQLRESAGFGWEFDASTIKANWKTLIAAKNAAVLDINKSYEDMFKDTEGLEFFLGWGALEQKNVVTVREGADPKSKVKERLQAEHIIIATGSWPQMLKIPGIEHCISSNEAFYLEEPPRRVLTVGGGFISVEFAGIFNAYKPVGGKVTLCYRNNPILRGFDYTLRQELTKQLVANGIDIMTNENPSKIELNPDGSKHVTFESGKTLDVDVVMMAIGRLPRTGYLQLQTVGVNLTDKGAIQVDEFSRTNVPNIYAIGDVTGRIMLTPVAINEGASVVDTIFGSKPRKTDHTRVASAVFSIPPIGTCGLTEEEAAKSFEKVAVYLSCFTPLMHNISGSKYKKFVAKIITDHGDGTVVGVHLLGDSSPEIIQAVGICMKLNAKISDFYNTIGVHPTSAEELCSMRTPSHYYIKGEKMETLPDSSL
- run_description: Inhibition of HIS-tagged recombinant Trypanosoma congolense TryR oxidoreductase activity expressed in Escherichia coli in the presence of NADPH by spectrophotometry based DTNB-coupled assay
Here, each record is paired with measured IC50 data.
The reply should consist of the numeric value with the unit placed after it.

{"columns": ["item_smiles", "value_reported"],
 "data": [
  ["C[n+]1nn(-c2ccc(-c3nc(CCc4ccccc4)cs3)c(OCCN3CCNC3=O)c2)cc1CCCCN.O=C(O)C(F)(F)F.O=S(=O)([O-])C(F)(F)F", "18.7 µM"]
]}

Value of IC50 reported for the compound "C[n+]1nn(-c2ccc(-c3nc(CCc4ccc(-c5ccccc5)cc4)cs3)c(OCCN3CCNC3=O)c2)cc1CCCCN.O=C(O)C(F)(F)F.O=S(=O)([O-])C(F)(F)F" is 3.6 µM

Sure, the documented IC50 for "C[n+]1nn(-c2ccc(-c3nc(CCc4ccc5ccccc5c4)cs3)c(OCCN3CCNC3=O)c2)cc1CCCCN.O=C(O)C(F)(F)F.O=S(=O)([O-])C(F)(F)F" is 4.2 µM

* * *

Collected pIC50 values appear next to each entry.
- assayed_system: Trypanothione reductase (Leishmania infantum)
- Sequence (A4HSF7 whole entry): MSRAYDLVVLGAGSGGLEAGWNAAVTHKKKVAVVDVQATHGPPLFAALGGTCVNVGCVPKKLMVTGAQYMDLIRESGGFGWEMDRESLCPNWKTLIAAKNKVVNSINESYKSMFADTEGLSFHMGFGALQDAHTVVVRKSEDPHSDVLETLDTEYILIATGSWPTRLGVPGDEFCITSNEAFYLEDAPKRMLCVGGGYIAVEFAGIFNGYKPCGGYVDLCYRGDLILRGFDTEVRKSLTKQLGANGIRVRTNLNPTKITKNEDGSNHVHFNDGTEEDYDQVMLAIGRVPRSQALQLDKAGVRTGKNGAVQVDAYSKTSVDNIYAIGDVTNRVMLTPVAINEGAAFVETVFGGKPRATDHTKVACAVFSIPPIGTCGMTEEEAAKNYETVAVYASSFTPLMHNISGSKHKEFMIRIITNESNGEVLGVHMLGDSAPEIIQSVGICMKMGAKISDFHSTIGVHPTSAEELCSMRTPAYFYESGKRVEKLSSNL
- run_description: Disruption of HIS-FLAG-tagged recombinant Leishmania infantum TryR dimerization expressed in Escherichia coli Rossetta BL21 (DE3) cells incubated for 16 hrs by ELISA analysis
pIC50: −log10 of the molar value.

Known pIC50 results, listed for orientation:
{"columns": ["molecule", "assayed_system", "pIC50"],
 "data": [
  ["C[n+]1nn(-c2ccc(-c3nc(CCc4ccccc4)cs3)c(OCC3CCNCC3)c2)cc1CCCCN", "Trypanothione reductase (Leishmania infantum)", "< 4.12"],
  ["C[n+]1nn(-c2ccc(-c3nc(CCc4ccc(-c5ccccc5)cc4)c(-c4ccccc4)s3)c(OCCN3CCNC3=O)c2)cc1CCCCN", "Trypanothione reductase (Leishmania infantum)", "< 4.12"],
  ["CC[n+]1nn(-c2ccc(-c3nc(CCc4ccc(-c5ccccc5)cc4)cs3)c(OCCN3CCNC3=O)c2)cc1CCCCN", "Trypanothione reductase (Leishmania infantum)", 4.24],
  ["C[n+]1nn(-c2ccc(-c3nc(CCc4ccc(-c5ccccc5)cc4)cs3)c(OCCN3CCNC3=O)c2)cc1CCCCN.O=C(O)C(F)(F)F.O=S(=O)([O-])C(F)(F)F", "Trypanothione reductase (Leishmania infantum)", 4.99],
  ["C[n+]1nn(-c2ccc(-c3nc(CCc4ccc(-c5ccccc5)cc4)cs3)c(OCCN3CCNC3=O)c2)cc1CCCN.O=C(O)C(F)(F)F.O=S(=O)([O-])C(F)(F)F", "Trypanothione reductase (Leishmania infantum)", 4.34]
]}

The molecule "COc1cc(-n2cc(CCCCN)[n+](C)n2)ccc1-c1nc(CCc2ccc(-c3ccccc3)cc2)cs1" showed pIC50 equal to < 4.12

Input "COc1cc(-n2cc(CCCCN)[n+](C)n2)ccc1-c1nc(CCc2ccccc2)cs1" . Output pIC50: < 4.12

// field: pIC50; key: "C[n+]1nn(-c2ccc(-c3nc(CCc4ccc(Oc5ccccc5)cc4)c(-c4ccccc4)s3)c(OCCN3CCNC3=O)c2)cc1CCCCN" ; value = < 4.12

# pIC50 of "C[n+]1nn(-c2ccc(-c3nc(CCc4ccc5ccccc5c4)cs3)c(OCCN3CCNC3=O)c2)cc1CCCCN.O=C(O)C(F)(F)F.O=S(=O)([O-])C(F)(F)F" = < 4.12

// "C[n+]1nn(-c2ccc(-c3nc(-c4ccc(Oc5ccccc5)cc4)c(-c4ccccc4)s3)c(OCCN3CCNC3=O)c2)cc1CCCCN" : pIC50 value = < 4.12

Notebook: C[n+]1nn(-c2ccc(-c3nc(CCC4Cc5ccccc5O4)cs3)c(OCCN3CCNC3=O)c2)cc1CCCCN (configuration not stated) , pIC50 read as < 4.12

# pIC50 (molecule: "C[n+]1nn(-c2ccc(-c3nc(-c4ccc(-c5ccccc5)cc4)c(-c4ccccc4)s3)c(OCCN3CCNC3=O)c2)cc1CCCCN" ) is < 4.12
